- target_or_system: Protein deacetylase HDAC6 (Homo sapiens) (UniProt Q9UBN7)
- setup_conditions: at 10 µM
Out of some 5,600 compounds screened, about 390 (7%) showed an effect of 50% or more. The sample as a whole holds a higher share of strong results than the screen did.
Measured inhibition of individual entries
measured_parameter: inhibition (%)

                                 smiles_text  observed_result
 0  CCCCNc1ncc2c(-c3ccc(CN4CCN(C)CC4)cc3)cn([C@H]3CC[C@H](O)CC3)c2n1             62.3
 1        Cc1c(Nc2ncccc2C(=O)O)cccc1C(F)(F)F             89.7
 2  Cc1cnc(NC(=O)Nc2cc(Br)c(C)cc2OC[C@@H]2CNCCO2)cn1            -8.01
 3               Cc1ccc(OCCSc2ncccn2)c(Br)c1             99.3
 4  Cc1ccccc1C(=O)c1ccc(Nc2ccc(Br)cc2N)cc1Cl             3.48
 5  CC(=O)O[C@]1(C(C)=O)CC[C@H]2[C@@H]3CCC4=CC(=O)CCC4=C3[C@@H](c3ccc(N(C)C)cc3)C[C@@]21C              7.8
 6      Fc1ccc(Cn2c(NC3CCNCC3)nc3ccccc32)cc1             6.44
 7  Nc1ccn([C@@H]2C(F)=C(CO)[C@@H](O)[C@H]2O)c(=O)n1              8.8
 8   O=C(OCCOCCO)c1ccccc1Nc1cccc(C(F)(F)F)c1             46.4
 9         NS(=O)(=O)c1nn2cc(-c3ccccc3)nc2s1             96.2
10           COc1cc(C=O)c([N+](=O)[O-])cc1OC             11.8
11  Cc1c(C)c2c(c(C)c1O)C[C@@](C)(CCC[C@H](C)CCC[C@H](C)CCCC(C)C)OC2             18.1
12  CCCCc1nn(-c2ccccc2C(F)(F)F)c(=O)n1Cc1ccc(-c2ccccc2S(=O)(=O)NC(=O)c2sccc2C)cc1             30.6
13  O=C(/C=C/c1cccc(S(=O)(=O)Nc2ccccc2)c1)NO              102
14                      O=C(O)c1cccnc1C(=O)O            -0.23
15            CC(=O)/N=c1/sc(S(N)(=O)=O)nn1C            -2.26
16                O=C1C(O)=C(O)C(=O)C(O)=C1O             1.19
17  Cc1cc(-c2nc3cc(F)ccc3s2)ccc1NC(=O)[C@@H](N)CCCCN             28.4
18         O=C(O)c1cccnc1Nc1cccc(C(F)(F)F)c1             74.8

* * *

- target_or_system: Protein deacetylase HDAC6 (Homo sapiens) (UniProt Q9UBN7)
- setup_conditions: at 10 µM
About 390 (7%) of roughly 5,600 compounds showed an effect of 50% or more. For the sample, strong results were picked, then their nearest neighbours and some compounds at random.
Kind request: treat 30% as inclusive, so inhibition at 30% or higher is true, anything lower is false.

smiles_text	answer_label
Cc1nc2c(OCc3ccccc3)cccn2c1CC#N	true
N[C@@H]1CCCN(c2c(/C=C3\SC(=O)NC3=O)cccc2-c2ccccc2)C1	true
CCCCCCC[N+](CC)(CC)CCCCc1ccc(Cl)cc1	false
Nc1nc(N)c(N=O)c(OCC2CCCCC2)n1	true
Cc1ccc(S(=O)(=O)NC2c3ccccc3Oc3ccccc32)cc1	false
COC(=O)N[C@H](C(=O)N1CCC[C@H]1C(=O)Nc1ccc([C@@H]2CC[C@@H](c3ccc(NC(=O)[C@@H]4CCCN4C(=O)[C@@H](NC(=O)OC)C(C)C)cc3)N2c2ccc(C(C)(C)C)cc2)cc1)C(C)C	false
CC(C)c1ccc(CC(=O)N2CCC[C@@H](c3cccc(OC(C)(C)C(=O)O)c3)C2)cc1	false
Nc1nc(OCC2CCCCC2)c2nc[nH]c2n1	true
O=C(O)c1cc(C(=O)O)c(C(=O)N(Cc2cccc(Oc3ccccc3)c2)[C@H]2CCCc3ccccc32)cc1C(=O)O	false

* * *

- target_or_system: Protein deacetylase HDAC6 (Homo sapiens)
- Sequence (whole entry): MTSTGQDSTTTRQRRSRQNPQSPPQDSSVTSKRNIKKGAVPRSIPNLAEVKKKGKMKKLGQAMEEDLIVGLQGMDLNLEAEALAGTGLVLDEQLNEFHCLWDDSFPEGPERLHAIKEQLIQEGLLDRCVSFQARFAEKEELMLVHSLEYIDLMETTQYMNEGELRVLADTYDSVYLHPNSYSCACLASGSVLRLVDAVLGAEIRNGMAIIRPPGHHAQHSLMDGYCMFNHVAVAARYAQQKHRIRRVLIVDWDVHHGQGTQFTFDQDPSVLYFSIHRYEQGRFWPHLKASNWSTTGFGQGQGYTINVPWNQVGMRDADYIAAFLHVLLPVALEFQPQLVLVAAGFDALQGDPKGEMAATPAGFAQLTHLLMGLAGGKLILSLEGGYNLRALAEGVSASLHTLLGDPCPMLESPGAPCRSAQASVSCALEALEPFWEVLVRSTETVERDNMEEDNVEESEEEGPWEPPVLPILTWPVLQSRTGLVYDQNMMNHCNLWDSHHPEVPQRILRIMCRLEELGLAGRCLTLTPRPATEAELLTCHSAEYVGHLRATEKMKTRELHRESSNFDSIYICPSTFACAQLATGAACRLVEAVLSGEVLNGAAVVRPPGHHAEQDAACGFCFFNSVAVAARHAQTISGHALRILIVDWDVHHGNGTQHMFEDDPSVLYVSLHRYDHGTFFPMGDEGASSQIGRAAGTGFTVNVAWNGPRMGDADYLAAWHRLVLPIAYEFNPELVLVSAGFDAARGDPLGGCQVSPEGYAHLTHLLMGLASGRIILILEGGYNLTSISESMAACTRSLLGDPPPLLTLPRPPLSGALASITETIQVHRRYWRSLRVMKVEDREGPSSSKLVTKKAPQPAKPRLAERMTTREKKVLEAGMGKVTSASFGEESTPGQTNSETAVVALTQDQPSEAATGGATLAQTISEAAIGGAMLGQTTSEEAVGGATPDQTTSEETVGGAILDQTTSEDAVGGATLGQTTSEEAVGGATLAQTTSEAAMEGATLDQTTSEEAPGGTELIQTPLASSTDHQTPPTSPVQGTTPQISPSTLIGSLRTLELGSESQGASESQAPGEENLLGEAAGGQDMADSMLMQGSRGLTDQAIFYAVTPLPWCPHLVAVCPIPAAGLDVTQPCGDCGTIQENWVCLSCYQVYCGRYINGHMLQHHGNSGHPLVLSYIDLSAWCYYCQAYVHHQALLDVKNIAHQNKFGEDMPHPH
- setup_conditions: at 10 µM
In all, about 5,600 compounds went through this assay and about 390 (7%) showed an effect of 50% or more. The sample as a whole holds a higher share of strong results than the screen did.
measured_parameter: inhibition (%)

>>> print(df.to_string())
                                 smiles_text  measured_parameter  observed_result
 0                      Ic1cc(-c2ccccc2)ncn1          inhibition             25.2
 1  O=C(O)CCNc1cc(N2CCc3ccccc3CC2)nc(-c2cccnc2)n1          inhibition            -1.98
 2  CCCCc1nc(Cl)c(C(=O)O)n1Cc1ccc(-c2ccccc2-c2nn[nH]n2)cc1          inhibition              6.5
 3  C=CC(=O)Nc1cc2c(Nc3ccc(F)c(Cl)c3)ncnc2cc1OCCCN1CCOCC1          inhibition             9.13
 4  COC(=O)Nc1ccc(-c2nc(N3CCOCC3)c3cnn(C4CCN(Cc5cccnc5)CC4)c3n2)cc1          inhibition            -1.91
 5         OCc1ccc(-c2ccc(-c3ccc(CO)s3)o2)s1          inhibition              102
 6                    C=CC(=O)c1ccc2ccccc2c1          inhibition             20.7
 7          c1ccc(-c2n[nH]c3c2oc2ccccc23)cc1          inhibition               95
 8  CCC[C@H](NC(=O)[C@@H]1[C@H]2CCC[C@H]2CN1C(=O)[C@@H](NC(=O)[C@@H](NC(=O)c1cnccn1)C1CCCCC1)C(C)(C)C)C(=O)C(=O)NC1CC1          inhibition            -8.83
 9      c1ccc(-c2n[nH]cc2-c2ccnc3ccccc23)nc1          inhibition            -5.98
10  COc1nccc(-c2c(-c3ccc(F)cc3)ncn2[C@H]2CC[C@H](O)CC2)n1          inhibition             -0.9
11  C/C(=C\C(=O)Nc1ccccc1C(=O)O)c1ccc2ccccc2c1          inhibition             27.8
12  Cn1c(=O)c2c(ncn2CCOC(=O)C(C)(C)Oc2ccc(Cl)cc2)n(C)c1=O          inhibition             23.6
13  CN(C)CCn1cc(S(=O)(=O)c2cccc(F)c2)c2cccnc21          inhibition             14.3
14  CCOc1nc2cccc(C(=O)O)c2n1Cc1ccc(-c2ccccc2-c2nnn[nH]2)cc1          inhibition            -9.37
15  O=c1[nH]c2ccccc2n1CCCN1CCN(C(c2ccccc2)c2ccccc2)CC1          inhibition            -9.27
16  CCCc1nc2c(C)cc(-c3nc4ccccc4n3C)cc2n1Cc1ccc(-c2ccccc2C(=O)O)cc1          inhibition               65
17  C[C@H](NC[C@H](O)CP(=O)(O)Cc1ccccc1)c1ccc(Cl)c(Cl)c1          inhibition            -2.08
18  CCNC(=O)N1CCN(CCCC(c2ccc(F)cc2)c2ccc(F)cc2)CC1          inhibition            -5.99
19                                      [K+]          inhibition             17.5
20                        CCNCCCNCCCCNCCCNCC          inhibition             4.88
21  Cc1cc(C)c2c(N)c(C(=O)NCc3ccc(Cl)cc3)sc2n1          inhibition             16.5

Source: ChEMBL document CHEMBL4808148
